Target: T1, human PAC1 receptor extracellular domain (ECD) (human, UniProt P41586 24-153)
T1 construct: also called PAC1 receptor ECD; PAC1 ECD
T1 sequence: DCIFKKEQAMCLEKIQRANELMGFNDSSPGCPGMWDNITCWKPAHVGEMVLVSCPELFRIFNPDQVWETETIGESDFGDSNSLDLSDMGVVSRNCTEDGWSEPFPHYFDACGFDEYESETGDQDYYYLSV
Experiment: yeast-displayed Fab, FACS, 10 nM PAC1 receptor ECD
Recorded Normalized Binding Signal/Display Signal (B/D) values for a group of binders are listed next.
Hi! Could you send only the number? It should be in ratio, unit omitted.

# count of solved cases: 2
anti-CGRP receptor variant 15, yeast-displayed Fab (Fab, V domains shown, also called Variant Ab ID 15) VH: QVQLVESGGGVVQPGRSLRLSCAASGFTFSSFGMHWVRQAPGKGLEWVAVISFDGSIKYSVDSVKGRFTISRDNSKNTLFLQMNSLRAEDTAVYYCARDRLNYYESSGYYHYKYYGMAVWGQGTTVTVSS VL: QSVLTQPPSVSAAPGQKVTISCSGSSSNIGNNYVSWYQQLPGTAPKLLIYDNNKRPSGIPDRFSGSKSGTSATLGITGLQTGDEADYYCGTWDWWRKAVIFGGGTKLTVLG; 0.1
anti-CGRP receptor variant 11, yeast-displayed Fab (Fab, V domains shown, also called Variant Ab ID 11) VH: QVQLVESGGGVVQPGRSLRLSCAASGFWFDTFGMHWVRQAPGKGLEWVAVISFAGEDTHYVDSVKGRFTISRDNSKNTLFLQMNSLRAEDTAVYYCARDRLNYYESYGYYGYHYYGMAVWGQGTTVTVSS VL: QSVLTQPPSVSAAPGQKVTISCSGSRSNIGRYSVSWYQQLPGTAPKLLIYENMFRPRGIPDRFSGSKSGTSATLGITGLQTGDEADYYCGTWDYRMQAVVFGGGTKLTVLG; 0.16

Q. # query: Normalized Binding Signal/Display Signal (B/D) of entry anti-CGRP receptor variant 02, yeast-displayed Fab (Fab, V domains shown, also called Variant Ab ID 02) VH: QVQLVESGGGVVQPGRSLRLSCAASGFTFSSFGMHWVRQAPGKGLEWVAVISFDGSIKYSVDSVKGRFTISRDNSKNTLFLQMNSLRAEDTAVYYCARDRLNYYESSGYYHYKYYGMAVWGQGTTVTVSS VL: QSVLTQPPSVSAAPGQKVTISCSGSRSNIGIKAVSWYQQLPGTAPKLLIYDNNKRPSGIPDRFSGSKSGTSATLGITGLQTGDEADYYCGTWDSRLSAVVFGGGTKLTVLG
A. 0.1

Q. # query: Normalized Binding Signal/Display Signal (B/D) of entry anti-CGRP receptor variant 01, yeast-displayed Fab (Fab, V domains shown, also called Variant Ab ID 01) VH: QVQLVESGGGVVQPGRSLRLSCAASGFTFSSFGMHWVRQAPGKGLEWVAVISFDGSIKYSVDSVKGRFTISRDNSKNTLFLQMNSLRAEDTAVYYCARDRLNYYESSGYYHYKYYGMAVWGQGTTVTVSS VL: QSVLTQPPSVSAAPGQKVTISCSGSYSNIGRYSVSWYQQLPGTAPKLLIYDNNKRPSGIPDRFSGSKSGTSATLGITGLQTGDEADYYCGTWDSRLSAVVFGGGTKLTVLG
A. 0.09

Provenance of the data: patent US20220363770A1
